Target sequence: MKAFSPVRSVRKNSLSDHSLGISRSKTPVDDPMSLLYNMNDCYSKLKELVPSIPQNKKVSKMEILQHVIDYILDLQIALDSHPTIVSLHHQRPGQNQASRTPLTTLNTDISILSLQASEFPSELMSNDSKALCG
pKd: −log10 of the molar value.
Measurement name: pKd

compound="O=C(CC1(O)C(=O)N(Cc2cccc(Cl)c2)c2ccccc21)c1ccccn1 (stereo not shown)" measurement_name=pKd readout_value=6.89
